- System: HCC-2998 colon
- protocol: NCI-60 one-dose screen, 48 h
- condition_set: 10 µM unless noted
About 83,000 compounds went through this panel and 20% of them were active in at least one assay; those are over-represented in the sample as a whole. The source made the active and inactive calls. Rule for the calls: active = growth percent below 10; inactive = the rest.
Answer with one of the outcomes active, inactive

compound	system_name	discrete_label
COc1ccc(C(=O)COc2cccc(/C=C3\CSc4ccc(Cl)cc4C3=O)c2)cc1	HCC-2998 colon	inactive

Q) Could you please tell me the result logged for CCCc1n(Cc2ccc3ccccc3c2)cc[n+]1Cc1ccc2ccccc2c1 in this assay?
A) active

Q) Another compound to look at: CC[C@@H](C)/C=C(C)/C=C/C(=O)c1c(O)c(-c2ccc(O)cc2)cn(OC2CC(=O)CCC(C)OC(=O)CC2O)c1=O (stereo not given in full)
A) active

Q) Another compound to look at: O[N+]1=CC=CCC1=S.On1ccccc1=S.[Zn]
A) active

Q) Another compound to look at: Cc1ccc(N/N=C(/C(=O)c2ccc(Cl)cc2)c2nc(C)cc(=O)[nH]2)cc1
A) inactive

###

- Tested on: IGROV1 ovarian
- protocol: NCI-60 one-dose screen, 48 h
- condition_set: 10 µM unless noted
This is part of a sample that, as a whole, favours compounds with a hit. Of some 83,000 tested, about 20% had one in any assay. Active and inactive are the calls of the source. The calls were made as follows: active = growth percent below 10; inactive = the rest.
Answer with one of the outcomes active, inactive

For orientation, consider the following solved cases.
molecule	discrete_label
C/C(=C\CCc1ccoc1)CC/C=C(\C)CCCN1CCSCC1	inactive
Cc1onc(-c2ccccc2Cl)c1C(=O)N[C@@H]1C(=O)N2[C@@H]1SC(C)(C)[C@@H]2C(=O)O	inactive
O=C1N=C(N2CCOCC2)S/C1=C\c1cn(-c2ccccc2)nc1-c1ccccc1	inactive
O=C(C(=O)N1CCOCC1)c1cn(CCCn2cc(C(=O)C(=O)N3CCOCC3)c3ccccc32)c2ccccc12	inactive
COc1ccc(C2=NN(C(C)=O)C(c3c(C)nn(-c4ccccc4)c3N3CCOCC3)C2)cc1 (stereo not given)	inactive
ICCC(c1ccccc1)(c1ccccc1)c1ccccc1	inactive
Cc1cc(=O)oc2cc(OCCn3c(C)nn(-c4ccc(Cl)cc4)c3=O)ccc12	inactive
CCSc1ncc(Br)c(Sc2nc(N)nc3nc[nH]c23)n1	inactive
O=C(Nc1ccccc1)P(=O)(O)c1ccccc1	inactive
c1ccc(-c2n(Cc3ccc4ccccc4c3)cc[n+]2Cc2ccc3ccccc3c2)cc1	active

Q) Could you please tell me the result logged for O=C(CNc1ccc2c(c1)C(=O)c1ccccc1C2=O)Nc1ccc2c(c1)C(=O)c1ccccc1C2=O in this assay?
A) active

Q) Another molecule to look at: C#C[C@]1(O)CCC2C3CCc4cc(O)ccc4C3CC[C@@]21C (stereo not given in full)
A) inactive

Q) Another molecule to look at: NS(=O)(=O)c1ccc(N2CC(c3nc4ccccc4[nH]3)CC2=O)cc1 (stereo not given)
A) inactive

Q) Another molecule to look at: CCCCCCCCN(CCO)CCCCCCCC
A) inactive

Q) Another molecule to look at: COC(=O)[C@H](Cc1cn(C)cn1)NC(=O)[C@H](C)NC(=O)Nc1cc(C(F)(F)F)cc(C(F)(F)F)c1
A) active

Q) Another molecule to look at: C[N+]1(C)C2CC[C@@H]1CC(OC(=O)C(O)c1ccccc1)C2 (stereo not given in full)
A) inactive

Q) Another molecule to look at: CCOc1cc(/C=C/C(=O)C(C(=O)/C=C/c2ccc(OC(=O)CNc3nc4ccccc4[nH]3)c(OCC)c2)C(=O)CNc2nc3ccccc3[nH]2)ccc1OC(=O)CNc1nc2ccccc2[nH]1
A) active

Q) Another molecule to look at: Cc1ccc(N/N=C(/C(=O)c2ccc(Cl)cc2)c2nc(C)cc(=O)[nH]2)cc1
A) active

Q) Another molecule to look at: N#Cc1c(-c2ccccc2)cc(-c2ccccc2)n(CCCCCCC(=O)O)c1=O
A) inactive

Q) Another molecule to look at: CC(C)Sc1nc(-c2ccc(Br)cc2)c(C#N)c(N2CCCCC2)n1
A) inactive

###

- System: SW-620 colon
- protocol: NCI-60 one-dose screen, 48 h
- condition_set: 10 µM unless noted
About 83,000 compounds went through this panel and 20% of them were active in at least one assay; those are over-represented in the sample as a whole. Activity calls are given as the source filed them. How the source made its calls: active means growth percent below 10; inactive means the rest.
Answer with one of the outcomes 1 (yes) = active, 0 (no) = inactive

For orientation, consider the following solved cases.
compound	discrete_label
COc1ccc(/C=C2\CCc3ccccc3C2=O)cc1	0 (no)
C[C@@H]1[C@H]2[C@H](C=C3[C@@H]4CC[C@H]5Cc6nc7c(nc6C[C@]5(C)[C@H]4C[C@@H](O)[C@@]32C)C[C@@H]2CC[C@H]3C4=C[C@@H]5O[C@@]6(CC[C@](C)(CO)O6)[C@@H](C)[C@@]5(O)[C@@]4(C)[C@H](O)C[C@@H]3[C@@]2(C)C7)O[C@]12CCC(C)(C)O2	1 (yes)
COc1ccc(-c2cnc(SCC(=O)Nc3ccc(-c4nc5ccccc5s4)cc3)n2-c2ccc(OC)cc2)cc1	0 (no)
COC(=O)[C@H]1[C@H]2C[C@@H]3c4[nH]c5cc(OC)ccc5c4CCN3C[C@H]2C[C@@H](OC(=O)/C=C/c2cc(OC)c(OC)c(OC)c2)[C@@H]1OC	0 (no)
CCOC1Oc2ccccc2C(=O)/C1=N/c1nccs1 (configuration not stated)	0 (no)
O=C1/C(=C/c2ccc(F)cc2)Cc2ccccc21	0 (no)

Now, please, on to the next compound.
Q) Could you please tell me the result logged for Cn1ccnc1C(=O)/C=C/c1ccc(C(=O)Nc2nc3ccccc3[nH]2)cc1 in this assay?
A) 1 (yes)

###

- System: SF-268 CNS
- protocol: NCI-60 one-dose screen, 48 h (100 = growth as untreated, 0 = no growth, -100 = all killed)
- condition_set: 10 µM unless noted
The panel holds about 83,000 compounds, 20% with a hit somewhere; the sample as a whole holds those more often.
# strict inequality: growth < 90% yields class 1, everything else yields class 0

Q) Bench note: check whether COc1ccc2nc(NC(=O)CN3CCn4c(nnc4C(F)(F)F)C3)sc2c1 shows growth below 90%
A) class 0

Q) Another compound to look at: CCOc1cc(/C=C/C(=O)CC(=O)/C=C/c2ccc(OC(=O)CNc3nc4ccc(OC)cc4s3)c(OCC)c2)ccc1OC(=O)CNc1nc2ccc(OC)cc2s1
A) class 1

Q) Another compound to look at: COc1ccc(CC(=O)Nc2nn3c(-c4cc(C(F)(F)F)cc(C(F)(F)F)c4)nnc3s2)cc1
A) class 1

Q) Another compound to look at: O=C1C=CC(=O)N1c1ccccn1
A) class 0

Q) Another compound to look at: COc1cccc(/C=N/Nc2nc3ccccc3s2)c1OC
A) class 1

###

- Tested on: HS 578T breast
- protocol: NCI-60 one-dose screen, 48 h (100 = growth as untreated, 0 = no growth, -100 = all killed)
- condition_set: 10 µM unless noted
The panel holds about 83,000 compounds, 20% with a hit somewhere; the sample as a whole holds those more often.
recorded_endpoint: growth (%)
All answers are understood in %, so give the number only.

Q) Given the compound CCCCc1ccc(C(N)=O)nc1 , what is its reported growth?
A) -48.3

Q) Another compound to look at: O=C(c1ccccc1)c1ccc(Oc2ccc([N+](=O)[O-])cc2[N+](=O)[O-])cc1
A) 90.7

Q) Another compound to look at: COc1cc(/C=C\C(C)=N\Nc2ccccc2)ccc1O
A) 92.1

###

- Test system: MDA-MB-231 breast
- protocol: NCI-60 one-dose screen, 48 h (100 = growth as untreated, 0 = no growth, -100 = all killed)
- condition_set: 10 µM unless noted
The panel holds about 83,000 compounds, 20% with a hit somewhere; the sample as a whole holds those more often.
# key: entry, value: growth
All answers are understood in %, so give the number only.

molecule	growth [%]
CCOC(=O)c1cc2oc(/C=C/c3cc(=O)c4cc(Cl)ccc4o3)cc2[nH]1	78.9
COc1cccc(/C=C2\Cc3ccccc3C2=O)c1	104
COc1ccc(C(=O)COc2ccc(/C=C3\Oc4ccc5ccccc5c4C3=O)cc2)cc1	97
O=c1c2ccccc2c2nccn2c2cc(Cl)ccc12	126

Q) Given the compound Cc1ccc(S(=O)(=O)N2CCN(C(=O)CSc3nc4ccc(C)cc4[nH]3)CC2)cc1 , what is its reported growth?
A) 92.3

###

- System: SK-MEL-28 melanoma
- protocol: NCI-60 one-dose screen, 48 h
- condition_set: 10 µM unless noted
Compounds without any hit were thinned out: in the full panel of roughly 83,000, 20% have a hit. Active and inactive are the calls of the source. Rule for the calls: active = growth percent below 10; inactive = the rest.
Answer with one of the outcomes y for active, n for inactive

For orientation, consider the following solved cases.
molecule	discrete_label
O=C(CNC(=O)c1cccc2ccccc12)Nc1ccccc1Oc1cccc(O)c1	n
Nc1c(C(=O)Nc2cccc(Cl)c2)sc2nc3c(cc12)C(O)CCC3 (stereo not given)	n
O=C(Nc1nc2ccc(OC(F)(F)F)cc2s1)c1ccc(F)cc1	n
c1ccc(-c2oc(-c3ccccc3)c3ccccc23)cc1	n

Now, please, on to the next molecule.
Q) Could you please tell me the result logged for CC(C)N(Cc1ccccc1)c1c(Cl)ssc1=O in this assay?
A) n
